METHOD SUMMARY: Solubility of proteins (lyophilized/reconstituted or ultrafiltered)
CONDITIONS USED: produced in E. coli unless otherwise noted
EXPERIMENTAL ENDPOINT: Solubility (g/L)
Just the number in g/L, nothing appended.

Recorded Solubility, per entry:
# MOLECULE, VALUE UNITS, READOUT VALUE
measured = [
    ("SEQID-00598: nutritive polypeptide naturally produced in Flaxseed, recombinantly expressed in E. coli (protein, listed as Linum usitatissimum) MSRRCPGKNAWPELVGKSGNMAAATVERENRNVHAIVLKEGSAMTKDFRCDRVWVIVNDHGVVTSVPHIT", "g/L", 150),
    ("SEQID-00115: nutritive polypeptide (protein, listed as Sus scrofa) EDEDDKTVSDLAVVLFETATLRSGYLLPDTKAYGDRIERMLRLSLNIDPDAKVEEEPEEEPEETTEDTTEDTEQDDDEEMDAGADEEEQETSETSTAEKDE", "g/L", 70),
    ("SEQID-00341: nutritive polypeptide (protein, listed as Saccharomyces cerevisiae, strain ATCC 204508 / S288c) MSTSREDSVYLAKLAEQAERYEEMVENMKTVASSGQELSVEERNLLSVAYKNVIGARRASWRIVSSIEQKEESKEKSEHQVELICSYRSKIETELTKISDDILSVLDSHLIPSATTGESKVFYYKMKGDYHRYLAEFSSGDAREKATNASLEAYKTASEIATTELPPTHPIRLGLALNFSVFYYEIQNSPDKACHLAKQAFDDAIAELDTLSEESYKDSTLIMQLLRDNLTLWTSDMSESGQAEDQQQQQQHQQQQPPAAAEGEAPK", "g/L", 166),
    ("SEQID-00102: nutritive polypeptide (protein, listed as Lactobacillus johnsonii) MTEEEIFNKIADMISERFSIDRDKITKDLNFQNDLDADSIDFVELVMDLEDTFGAEIPDDDAEKLQTVGEAVEYIKSHQN", "g/L", 120),
    ("SEQID-00236: nutritive polypeptide (protein, listed as Bos taurus) ALQEAHQQTLDDLQAEEDKVNTLTKAKTKLEQQVDDLEGSLEQEKKLRMDLERAKRKLEGDLKLA", "g/L", 60),
]

Provide measured Solubility value, entry: SEQID-00485: nutritive polypeptide naturally produced in Chickpea, recombinantly expressed in E. coli (protein, listed as Cicer arietinum) MTKTGYINAAFRSSRNNEAYLFINDKYVLLDYAPGTSNDKVLYGPSFVRDGYKSLAKTIFGTYGIDCSFDTEYNEAFIFYENFCARIDYAPHSDKDKIISGPKKIADMFPFFKGTVFENGIDAAFRSTKGKEVYLFKGDKYARIDYLTNRLVQNIKSISDGFPCLRGTIFEAGMDSAFASHKTNEAYLFKGEYYARINFTPGSTNDIMGGVKKTLDYWPSLRGIIPLE
99

Provide measured Solubility value, entry: SEQID-00099: nutritive polypeptide (protein, listed as Thermosynechococcus elongatus) MNQSEILEKVKAIVADQLSVDPEKVVPEASFAEDLNADSLDSVELIMALEEEFGVEIPDEEAEKLKTVQDVLDFINNKVAA
91

Provide measured Solubility value, entry: SEQID-00265: nutritive polypeptide (protein, listed as Bos taurus) SEGDRLRVELAEKANKLQNELDNVSTLLEEAEKKGIKFAKDAAGLESQLQDTQELLQEETRQKLNLSSRIRQLEEERSSLQEQQEEEEEARRSLEKQLQALQAQLTDTKKKVDDDLGTIENLEEAKKKLLKDVEVLSQRLEEKALAYDKLEKTKTRLQQELDDLLVDLDHQRQIVSNLEKKQKKFDQLLAEEKNISARYAEERDRAEAEAREKETKALSLARALEEALEAREEAERQNKQLRADMEDLMSSKDDVGKNVHELEKSKRALE
95
